Each entry below carries its reported pIC50.
Biological target: UniProt Q13547
Sequence (Q13547 whole entry): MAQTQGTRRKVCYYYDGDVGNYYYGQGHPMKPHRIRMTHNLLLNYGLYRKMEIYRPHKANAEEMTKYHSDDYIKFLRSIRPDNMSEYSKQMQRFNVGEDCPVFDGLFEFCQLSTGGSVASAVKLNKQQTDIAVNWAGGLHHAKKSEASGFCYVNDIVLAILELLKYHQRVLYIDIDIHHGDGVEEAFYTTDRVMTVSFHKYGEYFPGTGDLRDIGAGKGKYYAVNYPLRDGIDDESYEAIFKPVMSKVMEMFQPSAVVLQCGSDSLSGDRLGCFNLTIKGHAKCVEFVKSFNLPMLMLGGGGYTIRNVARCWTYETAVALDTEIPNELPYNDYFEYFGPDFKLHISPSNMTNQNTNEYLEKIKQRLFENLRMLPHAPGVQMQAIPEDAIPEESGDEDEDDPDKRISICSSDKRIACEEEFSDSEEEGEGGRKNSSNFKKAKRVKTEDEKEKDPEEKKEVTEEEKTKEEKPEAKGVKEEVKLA
# log scale: pIC50 equals minus log10 of the concentration in mol/L

CCCCCCc1nc2cc(/C=C/C(=O)NO)ccc2n1C1CCCNC1 (stereo not drawn)	6.98
CN(C)CC(C)(C)Cn1c(CC(C)(C)C)nc2cc(/C=C/C(=O)NO)ccc21	7.34

Continue with the next compound.
# return recorded pIC50 for entry `CCCCc1nc2cc(/C=C/C(=O)NO)ccc2n1CCNC(C)C`
7.38

----------
Each entry below carries its reported IC50.
Test system: COLO 205
Assay: Antiproliferative activity against human COLO205 cells after 96 hrs by celltiter 96 assay
Format: functional, cell-based
Details: COLO 205, 96 h
Just the number please, in µM, no unit attached.

Examples from the recorded data:
CCCCCCc1nc2cc(/C=C/C(=O)NO)ccc2n1CCN(CC)CC	0.42
CCCCc1nc2cc(/C=C/C(=O)NO)ccc2n1CCN(C)C	0.65
CCCCc1nc2cc(/C=C/C(=O)NO)ccc2n1CCC(C)C	6.02

# return recorded IC50 for entry `CCCCCCCCc1nc2cc(/C=C/C(=O)NO)ccc2n1CCNC`
0.23

# return recorded IC50 for entry `CCCCc1nc2cc(/C=C/C(=O)NO)ccc2n1CCN(C(C)C)C(C)C`
1.87

# return recorded IC50 for entry `O=C(/C=C/c1ccc2c(c1)nc(CCc1ccccc1)n2CCN1CCCC1)NO`
0.13

# return recorded IC50 for entry `CCCCc1nc2cc(/C=C/C(=O)NO)ccc2n1CCN(C)CC`
1.65

# return recorded IC50 for entry `CC(C)Cc1nc2cc(/C=C/C(=O)NO)ccc2n1CC(C)(C)CN(C)C`
2.69

# return recorded IC50 for entry `CCCCCCCCc1nc2cc(/C=C/C(=O)NO)ccc2n1CCN`
0.54

# return recorded IC50 for entry `Cc1[nH]c2ccccc2c1CCNCc1ccc(/C=C/C(=O)NO)cc1`
0.018

# return recorded IC50 for entry `CCCCCc1nc2cc(/C=C/C(=O)NO)ccc2n1CCN(C)CC`
0.45

# return recorded IC50 for entry `CCCCCCc1nc2cc(/C=C/C(=O)NO)ccc2n1CCNC(C)C`
0.17
